System: K24384-001-R-PDC complex spheroids, viability;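 note: spheroids exposed to compounds for seven days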
test_description: Anticancer human tumor K24384-001-R-PDC patient-derived pancreatic adenocarcinoma cell line growth inhibition [GQUAD]
condition_parameters: second compound 3.16 µM; first compound 0.1 µM; active compounds read low
Each entry falls into one class according to its viability, T/C; the ranges are lowest: < 50%; middle: ≥ 50% and < 70%; highest: ≥ 70%

{"columns": ["compound", "answer_label"],
 "data": [
  ["COc1cc(C2c3cc4c(cc3C(OC3OC5COC(C)OC5C(O)C3O)C3COC(=O)C23)OCO4)cc(OC)c1O (stereo not given) + CN(C)c1ccc(Nc2c3ccc(NC(=O)CCN4CCCC4)cc3nc3cc(NC(=O)CCN4CCCC4)ccc23)cc1", "highest"],
  ["COc1cccc2c1C(=O)c1c(O)c3c(c(O)c1C2=O)CC(O)(C(=O)CO)CC3OC1CC(N)C(O)C(C)O1 (stereo not given) + CN(C)c1ccc(Nc2c3ccc(NC(=O)CCN4CCCC4)cc3nc3cc(NC(=O)CCN4CCCC4)ccc23)cc1", "middle"],
  ["O=C(NO)c1cnc(N2CCN(S(=O)(=O)c3ccc4ccccc4c3)CC2)nc1 + Cc1cnc(CNC(=O)c2c(=O)c3ccc(N4CCCN(C)CC4)nc3n3c2sc2ccccc23)cn1", "lowest"],
  ["CC(=O)O[C@H]1C(=O)[C@@]2(C)[C@H]([C@H](OC(=O)c3ccccc3)[C@]3(O)C[C@H](OC(=O)[C@H](O)[C@@H](NC(=O)c4ccccc4)c4ccccc4)C(C)=C1C3(C)C)[C@]1(OC(C)=O)CO[C@@H]1C[C@@H]2O + CN(C)c1ccc(Nc2c3ccc(NC(=O)CCN4CCCC4)cc3nc3cc(NC(=O)CCN4CCCC4)ccc23)cc1", "lowest"],
  ["C=CC(=O)N1CCN(c2nc(=O)n(-c3c(C)ccnc3C(C)C)c3nc(-c4c(O)cccc4F)c(F)cc23)C(C)C1 (stereo not given) + Cc1[nH]c2ccc(F)cc2c1-c1nc2c3cccnc3c3ncccc3c2[nH]1", "highest"],
  ["COc1ccc([C@@H](O)c2cc(-c3ncnc4cc(N5CCOCC5)ccc34)c(F)cc2Cl)nn1 + Cc1cnc(CNC(=O)c2c(=O)c3ccc(N4CCCN(C)CC4)nc3n3c2sc2ccccc23)cn1", "lowest"],
  ["O=C(c1cc(Cc2n[nH]c(=O)c3ccccc23)ccc1F)N1CCN(C(=O)C2CC2)CC1 + CN(C)c1ccc(Nc2c3ccc(NC(=O)CCN4CCCC4)cc3nc3cc(NC(=O)CCN4CCCC4)ccc23)cc1", "highest"],
  ["CC(C)n1c(=O)n(C)c2cnc3cc(F)c(-c4ccc(OCCCN5CCCCC5)nc4)cc3c21 + Cc1cnc(CNC(=O)c2c(=O)c3ccc(N4CCCN(C)CC4)nc3n3c2sc2ccccc23)cn1", "lowest"],
  ["COc1cccc2c1C(=O)c1c(O)c3c(c(O)c1C2=O)CC(O)(C(=O)CO)CC3OC1CC(N)C(O)C(C)O1 (stereo not given) + Cc1[nH]c2ccc(F)cc2c1-c1nc2c3cccnc3c3ncccc3c2[nH]1", "middle"]
]}
